A set of molecules tested on SBS Tad1 (Bacillus phage SBSphiJ7), with measured Kd:

Nc1nc2c(ncn2[C@@H]2O[C@@H]3COP(=O)(O)O[C@H]4[C@@H](O)[C@H](n5cnc6c(N)ncnc65)O[C@@H]4COP(=O)(O)O[C@H]3[C@H]2O)c(=O)[nH]1; 48.7 nM

Dear colleague, I am looking for the recorded Kd of the following molecule: Nc1ncnc2c1ncn2[C@@H]1O[C@@H]2COP(=O)(O)O[C@H]3[C@@H](O)[C@H](n4ccc(=O)[nH]c4=O)O[C@@H]3COP(=O)(O)O[C@H]2[C@H]1O
53.9 nM
